Log SOSIP values by entry
Test system: Escherichia coli
test name: Genotoxicity (SOSIP) on Escherichia coli PQ37 (SOS induction potential data, as a measure of genotoxicity)
Format: functional
Kindly provide the number alone.

Some molecules with recorded Log SOSIP:
Cc1c([N+](=O)[O-])oc2ccc3cc(Br)ccc3c12 : 4.81
COc1ccc2c(ccc3oc([N+](=O)[O-])cc32)c1 : 4.23
Cc1c([N+](=O)[O-])oc2ccc3c(c12)CCCC3 : 2.11
O=[N+]([O-])c1cc2cc3ccccc3c(Br)c2o1 : 3.04
COc1ccc2c(ccc3oc([N+](=O)[O-])cc32)c1Br : 3.43
COC(=O)Cc1ccc2c(ccc3oc([N+](=O)[O-])cc32)c1 : 3.18

For Cc1c([N+](=O)[O-])oc2cc3c(cc12)CCCC3 the molecule record lists Log SOSIP as 3.41

For CC(=O)Cc1c([N+](=O)[O-])oc2ccc3ccccc3c12 the molecule record lists Log SOSIP as 3.43

For COc1ccc2ccc3oc([N+](=O)[O-])cc3c2c1 the molecule record lists Log SOSIP as 4.25

For O=[N+]([O-])c1cc2c3c(ccc2o1)CCCC3 the molecule record lists Log SOSIP as 2.08

====

System: Salmonella typhimurium
test name: Mutagenicity in Salmonella Typhimurium TA98 was determined
Format: functional, Salmonella enterica subsp. enterica serovar Typhimurium
recorded endpoint: Log TA98

COc1ccc2c(ccc3oc([N+](=O)[O-])cc32)c1 : 4.9

For O=[N+]([O-])c1cc2c(ccc3cc4ccccc4cc32)o1 the molecule record lists Log TA98 as 3.95

For O=[N+]([O-])c1oc2ccc3ccccc3c2c1CCO the molecule record lists Log TA98 as 3.59

For Cc1c([N+](=O)[O-])oc2c3c(ccc12)CCCC3 the molecule record lists Log TA98 as 2.46

For O=[N+]([O-])c1cc2c(ccc3cc(Br)ccc32)o1 the molecule record lists Log TA98 as 3.61

For COc1cc2cc([N+](=O)[O-])oc2c2ccccc12 the molecule record lists Log TA98 as 3.25

For O=[N+]([O-])c1cc2cc3ccccc3c(Br)c2o1 the molecule record lists Log TA98 as 3.31

For O=[N+]([O-])c1cc2ccccc2o1 the molecule record lists Log TA98 as 1.3

For O=[N+]([O-])c1cc2ccc3cc4ccccc4cc3c2o1 the molecule record lists Log TA98 as 3.88

====

System: Escherichia coli
test name: Genotoxicity (SOSIP) on Escherichia coli PQ37 (SOS induction potential data, as a measure of genotoxicity)
Assay type: functional
Values of Log SOSIP strictly less than 2 map to 1 (yes), and values of at least 2 map to 0 (no).

Look over these answered cases.
CCc1c([N+](=O)[O-])oc2ccc3ccccc3c12 : 0 (no)
Cc1c([N+](=O)[O-])oc2c1ccc1ccccc12 : 0 (no)
O=[N+]([O-])c1cc2c(ccc3cc(O)ccc32)o1 : 0 (no)
O=[N+]([O-])c1cc2cc3c(cc2o1)CCCC3 : 0 (no)
Cc1c([N+](=O)[O-])oc2ccccc12 : 1 (yes)
O=[N+]([O-])c1oc2ccc3ccccc3c2c1-c1ccccc1 : 0 (no)

Dear reviewer, please state whether COc1ccc2c(C)c([N+](=O)[O-])oc2c1 has Log SOSIP strictly beneath 2. 0 (no)

Dear reviewer, please state whether O=[N+]([O-])c1cc2c(ccc3cc4ccccc4cc32)o1 has Log SOSIP strictly beneath 2. 0 (no)

Dear reviewer, please state whether O=[N+]([O-])c1cc2ccc3c(c2o1)CCCC3 has Log SOSIP strictly beneath 2. 1 (yes)
